assay: Time at which plasma concentration remains above human whole blood IC50 level in human at 200 mg, po; type: ADME
quantityKind: Time

Incoming: // query Time value for entry Cc1ccc(-c2cc(C(F)(F)F)nn2-c2ccc(S(N)(=O)=O)cc2)cc1
Outgoing: 8 to 12 h

----------
Would you mind telling me the reported metabolised at 4 µM of each entry?
experiment: Drug metabolism in rat liver microsomes at 4 uM; format: ADME; details: read-out: Drug metabolism
Answer with the value and then the unit.

Some solved entries appear below for comparison.
Cc1cccc2ccc(N3CC[C@H](C(=O)N[C@H]4CCC[C@H](CO)C4)C(C)(C)C3)nc12 | 73%
Cc1cccc2ccc(N3CC[C@H](C(=O)N[C@H]4CCO[C@H](CO)C4)C(C)(C)C3)nc12 | 16%

Continue with the molecule presented below.
Incoming: Request the reported metabolised at 4 µM associated with Cc1cccc2ccc(N3CC[C@H](C(=O)N[C@H]4CC[C@@H](CO)CC4)C(C)(C)C3)nc12
Outgoing: 64%

----------
I'd appreciate it if you could supply metabolised at 4 µM values for the items below.
assay: Drug metabolism in human liver microsomes at 4 uM; type: ADME; details: read-out: Drug metabolism
One number for each entry, in %.

Dear reader, for each entry below, please note its metabolised at 4 µM.
1. Cc1cccc2ccc(N3CC[C@H](C(=O)N[C@H]4CC[C@@H](CO)CC4)C(C)(C)C3)nc12
2. Cc1cccc2ccc(N3CC[C@H](C(=O)N[C@H]4CCO[C@H](CO)C4)C(C)(C)C3)nc12
3. Cc1cccc2ccc(N3CC[C@H](C(=O)N[C@H]4CCC[C@H](CO)C4)C(C)(C)C3)nc12

Outgoing:
1: 46; 2: 20; 3: 50

----------
Assignment: determine reported IC50 for the given compounds.
Target: Prostaglandin E synthase (Homo sapiens)
Sequence (O14684 whole entry): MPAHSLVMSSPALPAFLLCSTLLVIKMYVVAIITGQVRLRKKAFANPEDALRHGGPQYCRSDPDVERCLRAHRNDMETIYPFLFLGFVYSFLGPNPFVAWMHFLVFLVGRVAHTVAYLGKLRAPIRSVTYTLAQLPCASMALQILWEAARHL
Numbers only, in nM.

Before answering, review these 3 worked examples.
Cc1cccc2ccc(N3CC[C@H](C(=O)N[C@H]4CCOC4)C(C)(C)C3)nc12 | 51
Cc1cccc2ccc(N3CC[C@H](C(=O)N[C@H]4CCCOC4)C(C)(C)C3)nc12 | 36
Cc1cccc2ccc(N3CC[C@H](C(=O)N[C@H]4CC[C@@H](CO)CC4)C(C)(C)C3)nc12 | 2

Need IC50 for each of these compounds.
1. Cc1cccc2ccc(N3CC[C@H](C(=O)N[C@H]4CCO[C@H](CO)C4)C(C)(C)C3)nc12
2. CC1(C)CN(c2ccc(C(F)(F)F)cc2)CC[C@@H]1C(=O)N[C@H]1CCC[C@H](CO)C1
3. CC1(C)CN(c2ccc3cccc(Cl)c3n2)CC[C@@H]1C(=O)N[C@H]1CC[C@@H](CO)CC1
4. Cc1cccc2ccc(N3CC[C@H](C(=O)N[C@H](C)C(C)C)C(C)(C)C3)nc12

Outgoing:
7
5
23
77

Incoming: Given Cc1cccc2ccc(N3CC[C@H](C(=O)N[C@H]4CCC[C@H](CO)C4)C(C)(C)C3)nc12 , state its recorded IC50.
Outgoing: 1

----------
target: Prostaglandin E synthase (Homo sapiens); assay: Inhibition of mPGES-1 (unknown origin)
quantityKind: pIC50
One number for each entry, as −log10 of the molar value.

Incoming: Which pIC50 value belongs to Cc1cc2nc(N3CCC(C(=O)NC4CCCC4)CC3)n(-c3ccc(F)c(C)c3)c2cc1C ?
Outgoing: 7.60
